Measured values drawn from ChEMBL document CHEMBL1201862 for this set.

Test system: NCI/ADR-RES
assay.protocol: NCI tumour cell line growth inhibition, 48 h
Calls of active or inactive are those of the source. Cut-off read from the data, not from the text of the source: active = GI50 up to about 1.1 µM and inactive = higher.
Please provide measured GI50 for the entries that follow.

Which measured GI50 value corresponds to `O=C(CNc1ccccn1)Nn1cnc2ccc(S(=O)(=O)Nc3ccccn3)cc2c1=O` ?
> 100 µM (inactive)

Which GI50 reading was recorded for the molecule `N#C/N=C1/c2ccccc2/C(=N/C#N)c2cc(CO)ccc21` ?
28.5 µM (inactive)

GI50 lookup needed for `CC(C)=NNc1ncnc2[nH]cnc12` , thanks.
5.01 µM (inactive)

Any idea what its GI50 is? The molecule is `CC(C)NC(=O)OCc1c(COC(=O)NC(C)C)c(-c2cc[n+](COC(=O)CC(C)(C)C)cc2)n2c1CCC2`
> 100 µM (inactive)

Fill in: GI50 of CCOC(=O)C(C)N1C(=O)c2ccccc2S1(=O)=O (stereo not given) is ___
> 100 µM (inactive)

Quick one: GI50 of CC1CC(Br)C(=O)O1 (stereo not given) ?
> 100 µM (inactive)

Need GI50 of `CNc1ccc(Cl)cc1C(=O)N1CCC[C@H]1CO` , thanks.
> 100 µM (inactive)

I am curious: what GI50 value has been reported for Cc1cc2c(cc1C)N1C(Cl)=C3CCCCC3=C(C#N)C1N2 (stereo not given) ?
6.31 µM (inactive)

Need GI50 of `FC(F)(F)c1nc2cc(SSc3cc4nc(C(F)(F)F)[nH]c4cc3Cl)c(Cl)cc2[nH]1` , thanks.
> 100 µM (inactive)

Record request: GI50 value, item `O=S(=O)(O)c1cc(/N=N/c2c(O)ccc3ccccc23)ccc1/C=C/c1ccc(/N=N/c2c(O)ccc3ccccc23)cc1S(=O)(=O)O`
> 100 µM (inactive)

----------
System: NCI-H522
assay.protocol: NCI tumour cell line growth inhibition, 48 h
Active and inactive are the calls of the source. No stated cut-off is given here; in the data, active = GI50 up to about 1.1 µM and inactive = higher.
Respond with a class label; see active, inactive

Which outcome was entered for the compound `N#Cc1ncc(C(Cl)Cl)nc1Cl` in this test?
active

For this compound, state the assay outcome: `O=c1c2ccccc2[nH]c2c(O)ccc(O)c12`
inactive

Write down the call the test reported for this compound. Item: `NC(=O)C(C(N)=O)=C(O)/C(O)=C/C(=O)c1ccccc1`
inactive

How was `O=C1N/N=C\c2ccc(cc2)OCc2cccc(n2)COc2ccc(cc2)/C=N\NC1=O` classified in this test?
inactive

Write down the call the test reported for this compound. Item: O=C(O)C1CCCN1Cc1ccc2c(c1)OCO2 (stereo unspecified)
inactive

// param item: OCCSCC(O)Cn1cnc2c(O)nc(Nc3ccccc3)nc21 (stereo unspecified) ; yields the recorded call
inactive

Tell me the assay call for `CC1=C/C(=N\NS(=O)(=O)c2ccc([N+](=O)[O-])cc2)CC(C)(C)C1` please.
inactive

For this compound, state the assay outcome: `Cc1cn(CC2=NCCN2)c(=O)[nH]c1=O`
inactive

Entry `O=S1(=O)c2ccccc2NC(=S)N1c1ccccc1` : call = ?
inactive

Please let me know the test result on file for `Cc1cc(Oc2cnc(=O)[nH]c2)cs1` .
inactive

Test call for this compound, please: Cn1nc(/C=C\C(=O)N2CC(CCl)c3c2cc(N)c2ccccc32)cc1/C=C/C(=O)N1CC(CCl)c2c1cc(N)c1ccccc21 (stereo unspecified)
active

Hello, I am checking results. What call was entered for `COc1cc(OC)c2c(=O)c3cccc([N+](=O)[O-])c3n(C)c2c1` ?
inactive

Fill in: this test's call for CC1=NNC(=O)C1C1CC(c2c[nH]c3ccccc23)=NNC1=O (stereo unspecified) is ___
inactive

Identify the outcome logged in this assay for the compound shown: C=C(Cl)/C(=C\Cl)CCC(Br)C(C)C (stereo unspecified)
inactive

Identify the outcome logged in this assay for the compound shown: `CCCCSC(=CC(=O)c1cccc(C(=O)C=C(SCCCC)SCCCC)n1)SCCCC`
inactive

Kindly provide the recorded test outcome for the following compound: Nc1nc(N)c2nc(CNc3ccc(C(=O)NC(CCCNC(=O)c4ccccc4C(=O)O)C(=O)O)cc3)cnc2n1 (stereo unspecified)
active

I would be grateful if you could indicate the recorded call for `C=CCNC(=S)NC=C(C(N)=O)C(N)=O` .
inactive

For `CC1=CC(=O)/C(=C/n2c(=S)[nH]c3ccc([N+](=O)[O-])cc32)C(=O)O1` , which call appears in the assay record?
inactive

So what was the verdict on CC1CC(C)CN(S(=O)(=O)c2cc(Cl)c(Oc3ccc([N+](=O)[O-])cc3Cl)c(Cl)c2)C1 (stereo unspecified) in this test?
inactive

What classification did `N#Cc1cc(C#N)c(N)nc1N` end up with in this test?
inactive

Check the results log: what was the call for `C1=Cc2nccc3cc4c(c(c23)N1)OCO4` ?
inactive

----------
System: OVCAR-4
assay.protocol: NCI tumour cell line growth inhibition, 48 h
Calls of active or inactive are those of the source. No stated cut-off is given here; in the data, active = GI50 up to about 1.1 µM and inactive = higher.
Form entry, call: pick from active, inactive

Fill in: this test's call for `C=CCc1cccc2cc(C(=O)Nc3nc(C45CC6CC(CC(C6)C4)C5)cs3)c(=O)oc12` is ___
inactive

Write down the call the test reported for this compound. Item: CCCCCCCC/C=C\CCCCCCCCCCCC(=O)O [ERUCIC ACID]
inactive

I'd appreciate the recorded outcome for `CC(=O)c1ccc(Nc2c3ccccc3nc3occc23)cc1` from this test.
active

Look up the recorded call for `COc1cc(OC)nc(NC(=O)NS(=O)(=O)c2cccc3ncn(C)c(=O)c23)n1` in this test.
inactive

Name the outcome recorded for `COc1ccc2nc(-c3ccc(OC(=O)N(C)C)cc3)cn2c1` in the assay.
inactive

Record lookup: outcome of this test for CCCCCCC(O)C(O)CCC(O)C1CCC(CCCCC(O)CC2=CC(C)OC2=O)O1 (configuration not stated) [ACETOGENINS] ?
inactive

For `COc1ccc2c(C)c(Oc3c(Cl)c(Cl)c(O)c(C#N)c3C#N)oc2c1` , what call appears in the results of this test?
inactive

Please let me know the test result on file for `CC(=O)c1cccn1/C=C(\OC(=O)OC(C)(C)C)c1ccc[nH]1` .
inactive

Which outcome was assigned to N#CC1(C#N)C2C=CC(c3coc4cccc2c34)C1(C#N)C#N (configuration not stated) in this test?
inactive

Recorded test call requested for `Cc1cccc(NC(=O)/C=C/c2ccc([N+](=O)[O-])cc2)c1`
inactive

Hi team, can someone confirm the assay call for CC(C)(C)[Si](C)(C)OC1C(=O)C[C@H]2CCCC[C@@H]12 (some centres not stated) ?
inactive

Lab log entry: `N#Cc1c(N)nc(SCc2ccccc2)c(C#N)c1-c1ccc(O)cc1` — outcome as called in the assay?
inactive

Hi, do you know how S=C1SCC2CCCN12 (configuration not stated) came out in this test?
inactive

I'd appreciate the recorded outcome for C=C1CC2(CCCC3(CC(=C)C(=O)O3)C2(C)C)OC1=O (configuration not stated) from this test.
inactive

Tell me the recorded outcome of this test for `Cc1ccc(-c2cc(-c3ccco3)nc(N)n2)o1` .
inactive

For this compound, state the assay outcome: `Nc1nc(Nc2ccccc2)sc1C(=O)c1ccc(Cl)cc1`
active

Call for entry COC(=O)C1Cc2c(n(C)c3ccccc23)C(CCC(=O)O)N1Cc1ccccc1 (configuration not stated) :
inactive

----------
Tested on: TK-10
assay.protocol: NCI tumour cell line growth inhibition, 48 h
Active and inactive are the calls of the source. Cut-off read from the data, not from the text of the source: active = GI50 up to about 1.1 µM and inactive = higher.
Result category, one only: active, inactive

Each molecule tested received a call. Report the one for `CN(C)CCNc1ccc(CO)c2oc3ccc(O)cc3c(=O)c12` .
inactive

Dear colleague, could you share the recorded outcome for COc1cccc2c1C(=O)c1c(O)c3c(c(O)c1C2=O)C[C@@](O)(C(=O)CO)CC3OC1CC(NCCOCC(OC(C)=O)OC(C)=O)C(O)C(C)O1 (stereo not given in full) when you have a moment?
active

# lookup: test call for CC(=O)OC(C)c1cc2c(s1)C(=O)c1scc(C(C)OC(C)=O)c1C2=O (stereo not given)
active

Answer briefly: the call reported for O=C(O)c1cc(N(Cc2ccccc2O)Cc2cc(O)ccc2O)ccc1O [LAVENDUSTIN A] in this assay.
inactive

Please let me know the test result on file for `CC(=O)Nc1ccc2cc(C)c(O)nc2n1` .
inactive

----------
System: PC-3
assay.protocol: NCI tumour cell line growth inhibition, 48 h
Active and inactive are the calls of the source. Rule as the data show it: active = GI50 up to about 1.1 µM and inactive = higher.
The categories you may choose from are yes (1) = active, no (0) = inactive

Dear colleague, could you share the recorded outcome for `CCOC(=O)N(CC)c1c(C(F)(F)F)cc(-c2ccccc2)[nH]c1=O` when you have a moment?
no (0)

Per the records of this test, what outcome belongs to `O=C(Nc1sccc1S(=O)(=O)c1ccccc1)c1cccnc1` ?
no (0)

Fill in: this test's call for `Nc1nc2c(ncn2Cc2ccc(CO)cc2)c(=O)[nH]1` is ___
no (0)

Short answer needed: outcome of this test for CC1CC(Br)C(=O)O1 (stereo not drawn) ?
no (0)

Field: outcome | Entry: C=C1C[C@@H](O)[C@@H](Br)C(C)(C)[C@@]12C=CC(O)(CBr)CC2 (stereo partly drawn)
no (0)

For this molecule, state the assay outcome: O=C(O)C1CC(C2CCCCN2)CN2CCCCC12 (stereo not drawn)
no (0)

Answer briefly: the call reported for Nc1nc(Br)nc2ncn(C3CC(O)C(CO)O3)c12 (stereo not drawn) in this assay.
no (0)

Please share the test call associated with COc1ccc(C2SCC(=O)N2c2ccc(-c3ccc(-n4c(-c5ccccc5)nc5ccccc5c4=O)cc3)cc2)cc1OC (stereo not drawn) .
no (0)

What is the recorded call for this molecule in the test? `O=C(CN1CCOCC1)c1ccc2c(c1)oc(=O)n2CCN1CCOCC1`
no (0)

Identify the outcome logged in this assay for the molecule shown: `Cc1cc(C2(c3cc(C)c(O)c4ncccc34)OC(=O)c3ccccc32)c2cccnc2c1O`
yes (1)

Assay result, entry `N#C/N=C1/c2ccccc2/C(=N/C#N)c2cc(CO)ccc21` — outcome?
no (0)

What did the test return for `CC/C(Cl)=N\OC(=O)Nc1ccc(OC)c(C)c1` ?
no (0)

Outcome logged for O=c1[nH]c(=O)n(C2OC(CO)C(O)C2O)cc1OCCc1ccccc1 (stereo not drawn) in this assay:
no (0)

Dear all, I need the recorded test outcome for `O=C1c2ccccc2C(=O)c2c1ccc1c3ccccc3n(-c3ccccc3)c21` , thank you.
no (0)

Give the logged outcome of this assay for the following molecule: `O=c1oc2ccccc2c(O)c1C1c2c(c3ccccc3oc2=O)Oc2c1c(=O)oc1ccccc21`
no (0)

Short answer needed: outcome of this test for O=C1C(/C=C/c2ccc(Cl)cc2)=NNC2N1N=C1NC(=O)C3(NN12)c1ccccc1-c1ccccc13 (stereo not drawn) ?
no (0)

Tell me the recorded outcome of this test for `COc1ccccc1N=C(S)Nc1ccccn1` .
no (0)

Test call, this molecule: `O=C(CSc1n[nH]c(=O)[nH]c1=O)NNC(=O)c1cccc2nc3ccccc3nc12`
no (0)
